Source: ChEMBL document CHEMBL1201862

Test system: ACHN
MEASUREMENT PROTOCOL: NCI tumour cell line growth inhibition, 48 h
The source made the active and inactive calls. No stated cut-off is given here; in the data, active = GI50 up to about 1.1 µM and inactive = higher.
Outcome codes: active, inactive

> print(dat)
                                    molecule  classification
 1  CC[C@@]1(O)C(=O)OCc2c1cc1n(c2=O)Cc2c-1nc1ccccc1c2CC[Si](C)(C)C          active
 2  Cc1c2n(c(=O)[nH]c1=O)C1OC(CO)C(N=[N+]=[N-])C1O2 (stereo unspecified)        inactive
 3  N[C@H](Cc1ccc2oc3cc(=O)c4ccccc4c-3nc2c1)C(=O)O        inactive
 4  CCOC(=O)C(COS(C)(=O)=O)(COS(C)(=O)=O)C(=O)OCC        inactive
 5  CC(=O)c1ccc2c3c1[C@H]1O[C@H]1c1cccc(c1-3)[C@@H]1O[C@H]21        inactive
 6  c1ccc(/N=C2\C(=N/c3ccccc3)N(C3CCCCC3)/C(=N\C3CCCCC3)N2c2ccccc2)cc1        inactive
 7  COC(=O)C(NC(=O)C(CC(=O)OC(C)(C)C)NC(=O)OC(C)(C)C)C(O)c1ccccc1 (stereo unspecified)        inactive
 8  Nc1nc(N)c(-c2cccc(C(F)(F)F)c2)c(Cc2cccc(C(F)(F)F)c2)n1        inactive
 9  CC(C)N(C(=O)C12C3C4C5(C(=O)O)C(C1C35I)C42C(=O)O)C(C)C (stereo unspecified)        inactive
10  O=C(N/N=C(COc1ccc(Cl)cc1)\N=C\c1ccncc1)c1ccncc1        inactive
11  Cc1ccccc1/N=N/c1c(O)c(S(=O)(=O)O)cc2cc(S(=O)(=O)O)ccc12        inactive
12  CC1(C(O)c2ccccc2)CN(C(C)(C)C)C(=O)/C1=C\Sc1ccccc1 (stereo unspecified)        inactive
13  Cc1ccc(SCC(OCn2cnc3c(Cl)nc(N)nc32)[C@H](C)F)cc1 (stereo partly specified)        inactive
14  C#CCC1(C(=O)OCC)C(=O)c2ccccc2N(C)C1=O (stereo unspecified)        inactive
15             Cc1cc(-c2nc3c(O)cccc3s2)ccc1N        inactive
16  CC(C)[Si](OC1=CCC[C@H]2NC(=O)[C@@H](Cc3ccccc3)[C@@]12C)(C(C)C)C(C)C        inactive
17  CCOC(=O)c1nc2c3c(ncn2n1)Oc1c(c(-c2ccccc2)nn1-c1ccccc1)C3c1ccc(Cl)cc1 (stereo unspecified)        inactive
18      O=c1c2cc([N+](=O)[O-])ccc2n2n1CCCCC2        inactive
19  O=c1c2cc3c(=O)n(CCc4ccccc4CO)c(=O)c3cc2c(=O)n1CCc1ccccc1CO        inactive
20  O=C(/C=C/c1ccc([N+](=O)[O-])cc1)c1ccc(NCc2nc3ccccc3[nH]2)cc1        inactive
21  Oc1ccc2c(c1)c1c(n2CCN2CCOCC2)-c2ccccc2CC1        inactive
22  O=[N+]([O-])c1ccc(-c2nc3cc(Cl)ccc3[nH]2)cc1        inactive
23                  CCCCC(=O)c1ccc2ccccc2c1O        inactive
24  CSC1=NN(C(C)=O)C(C(OC(C)=O)C(OC(C)=O)C(OC(C)=O)C(COC(C)=O)OC(C)=O)S1 (stereo unspecified)        inactive
25   Cc1[nH]c2ccccc2c1/C=N/NC(=O)c1cccc(I)c1        inactive
26  N#CCCC(CC#N)N1CCN(CCO)CC1 (stereo unspecified)        inactive
27  O=C(O)CCC(NC(=O)c1ccc(CNc2nc3cc(C(F)(F)F)ccc3nc2C(=O)O)cc1)C(=O)O (stereo unspecified)        inactive
28          CNc1cc(Cl)ccc1C(=O)N1CCC[C@H]1CO        inactive
29  CN1CC=C(OP(=O)(NCc2ccccc2)N(CCCl)CCCl)CC1 (stereo unspecified)        inactive
30  O=c1cc(CO)oc2c3c(cc(O)c12)OCC(COC1OC(CO)C(O)C(O)C1O)=CC3 (stereo unspecified)        inactive
31  C[C@H](CCc1nc(C#N)c(N)o1)[C@H]1CC[C@H]2[C@@H]3CCC4C[C@@H](O)CC[C@]4(C)[C@H]3C[C@@H](O)[C@]12C (stereo partly specified)        inactive
32                     Cc1cc2c(cn1)C(=O)OCC2        inactive
33  O=C(c1c(F)c(F)c(F)c(F)c1F)n1c(O)nc2ccccc21        inactive
34  CCC(NC(C)c1ccccc1)C(O)c1ccc(OCc2ccccc2)c(OCc2ccccc2)c1 (stereo unspecified)        inactive
35  c1cc(-c2ccc(-c3ccc(C4=NCCCN4)cc3)o2)ccc1C1=NCCCN1        inactive
36             CN1CCCCCC(=N\O)/C(=N/O)CCCCC1        inactive
37       CO/C(=N\N=C\c1cc(OC)ccc1OC)c1ccncc1        inactive
38  C=C=CC(NC(=O)c1ccccc1)(C(=O)O)C(F)(F)F (stereo unspecified)        inactive
39                N/N=C(\N)SCc1ccc(N=C=S)cc1        inactive
40   O=C(/C=C/c1ccccc1O)CC(=O)/C=C/c1ccccc1O        inactive
41   Cc1cc(-c2ccc(C(=O)C(Cl)(Cl)Cl)[nH]2)on1        inactive
